Entries and their inhibition at 0.1 µM values follow.
Target: Androgen Receptor (AR) protein (Homo sapiens, UniProt P10275, T878A)
Construct: endogenous in cells; host or cells: LNCaP
Sequence (P10275 whole entry T878A): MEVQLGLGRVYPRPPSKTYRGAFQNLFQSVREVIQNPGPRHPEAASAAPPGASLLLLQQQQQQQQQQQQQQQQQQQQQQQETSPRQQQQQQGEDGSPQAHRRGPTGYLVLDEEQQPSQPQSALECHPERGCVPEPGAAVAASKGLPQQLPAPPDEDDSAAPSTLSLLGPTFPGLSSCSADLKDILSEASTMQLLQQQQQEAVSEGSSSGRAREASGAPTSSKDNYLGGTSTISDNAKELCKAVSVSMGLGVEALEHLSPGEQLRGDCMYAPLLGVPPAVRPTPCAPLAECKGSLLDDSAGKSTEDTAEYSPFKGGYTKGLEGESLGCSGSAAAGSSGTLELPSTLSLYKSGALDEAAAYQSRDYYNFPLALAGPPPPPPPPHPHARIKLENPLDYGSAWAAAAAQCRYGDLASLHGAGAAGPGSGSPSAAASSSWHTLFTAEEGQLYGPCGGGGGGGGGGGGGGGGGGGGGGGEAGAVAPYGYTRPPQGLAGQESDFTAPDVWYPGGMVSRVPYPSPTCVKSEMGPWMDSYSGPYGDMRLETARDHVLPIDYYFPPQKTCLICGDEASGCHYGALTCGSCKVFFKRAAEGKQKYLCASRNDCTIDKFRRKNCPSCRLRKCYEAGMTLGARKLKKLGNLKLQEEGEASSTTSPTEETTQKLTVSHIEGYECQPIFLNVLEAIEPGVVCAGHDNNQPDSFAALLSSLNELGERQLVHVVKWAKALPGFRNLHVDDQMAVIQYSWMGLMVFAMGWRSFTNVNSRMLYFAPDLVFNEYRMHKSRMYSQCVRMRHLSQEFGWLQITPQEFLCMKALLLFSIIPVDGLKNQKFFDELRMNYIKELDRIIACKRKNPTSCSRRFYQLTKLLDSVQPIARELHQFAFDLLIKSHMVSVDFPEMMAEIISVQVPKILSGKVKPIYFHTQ
Sequence (Q96SW2 whole entry partner): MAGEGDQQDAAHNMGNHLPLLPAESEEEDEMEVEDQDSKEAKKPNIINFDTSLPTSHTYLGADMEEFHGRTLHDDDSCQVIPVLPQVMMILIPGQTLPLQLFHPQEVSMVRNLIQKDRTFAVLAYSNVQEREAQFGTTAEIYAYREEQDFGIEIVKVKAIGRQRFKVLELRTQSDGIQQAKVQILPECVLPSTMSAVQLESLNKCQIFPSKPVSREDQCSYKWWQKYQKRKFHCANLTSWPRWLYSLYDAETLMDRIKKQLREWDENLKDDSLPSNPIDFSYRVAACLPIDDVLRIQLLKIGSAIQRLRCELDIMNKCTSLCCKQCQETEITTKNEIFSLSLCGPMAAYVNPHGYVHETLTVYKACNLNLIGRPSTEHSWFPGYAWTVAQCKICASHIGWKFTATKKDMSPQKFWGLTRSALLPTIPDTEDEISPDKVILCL
Test: Androgen Receptor (AR) protein degradation assay in LNCaP cells, western blotting
Type: cell-based
Conditions: 20 h, 0.1 μM compound
property-label: inhibition at 0.1 µM (%)

INSERT INTO assay_data (molecule, measure_unit, measured_value) VALUES
  ('N#Cc1ccc(N2CCC(C(=O)Nc3ccc(N4CCC(CN5CCN(CC6CCN(c7ccc8c(c7)C(=O)N(C7CCC(=O)NC7=O)C8=O)CC6)CC5)CC4)cc3)CC2)cc1C(F)(F)F (stereo not drawn)', '%', 50),
  ('CC1(CN2CCC(COc3ccc4c(c3)C(=O)N(C3CCC(=O)NC3=O)C4=O)CC2)CN(c2ccc(NC(=O)C3CCN(c4ccc(C#N)c(C(F)(F)F)c4)CC3)nc2)C1 (stereo not drawn)', '%', 97),
  ('N#Cc1ccc(N2CCC(C(=O)Nc3ccc(N4CCC(CN5CC6(CCN(c7ccc8c(c7)C(=O)N(C7CCC(=O)NC7=O)C8=O)CC6)C5)CC4)cn3)CC2)cc1Cl (stereo not drawn)', '%', 97);

* * *

Molecular target: Androgen Receptor (AR) protein (Homo sapiens, UniProt P10275, T878A)
Construct: endogenous in cells; host or cells: LNCaP
Assay: Androgen Receptor (AR) protein degradation assay in LNCaP cells, western blotting
Type: cell-based
Settings: 20 h, 0.1 μM compound
Entries and their inhibition at 0.1 µM values follow.
property-label: inhibition at 0.1 µM

INSERT INTO assay_data (compound, measured_value) VALUES
  ('N#Cc1ccc(N2CCC(C(=O)Nc3ccc(N4CCN(CCCCOc5ccc6c(c5)C(=O)N(C5CCC(=O)NC5=O)C6=O)CC4)cn3)CC2)cc1Cl (stereo not drawn)', '43%'),
  ('N#Cc1ccc(N2CCC(C(=O)Nc3ccc(N4CCC(CN5CC6(C5)CN(c5ccc7c(c5)C(=O)N(C5CCC(=O)NC5=O)C7=O)C6)CC4)cn3)CC2)cc1Cl (stereo not drawn)', '90%'),
  ('C[C@H]1CN(CC2CCN(c3ccc(NC(=O)C4CCN(c5ccc(C#N)c(C(F)(F)F)c5)CC4)nc3)CC2)CCN1CC1CCN(c2ccc3c(n2)CN(C2CCC(=O)NC2=O)C3=O)CC1 (stereo partly drawn)', '94%'),
  ('N#Cc1ccc(N2CCC(C(=O)Nc3ccc(C#CC4CCN(CC5CN(c6ccc7c(c6)C(=O)N(C6CCC(=O)NC6=O)C7=O)C5)CC4)cn3)CC2)cc1C(F)(F)F (stereo not drawn)', '67%'),
  ('N#Cc1ccc(N2CCC(C(=O)Nc3ccc(N4CC5(CCN(C[C@@H]6CCN(c7ccc8c(c7)C(=O)N(C7CCC(=O)NC7=O)C8=O)C6)CC5)C4)cn3)CC2)cc1C(F)(F)F (stereo partly drawn)', '89%'),
  ('N#Cc1ccc(N2CCC(C(=O)Nc3ccc(N4CCC(CN5CCN(C[C@@H]6CCN(c7cc8c(cc7F)C(=O)N(C7CCC(=O)NC7=O)C8=O)C6)CC5)CC4)cn3)CC2)cc1C(F)(F)F (stereo partly drawn)', '93%'),
  ('N#Cc1ccc(N2CCC(C(=O)Nc3ccc(OCC4CCN(CC5CCN(c6cc7c(cc6F)C(=O)N(C6CCC(=O)NC6=O)C7=O)CC5)CC4)cn3)CC2)cc1C(F)(F)F (stereo not drawn)', '93%'),
  ('N#Cc1ccc(N2CCC(C(=O)Nc3ccc(OC4CN(CC5CCN(c6ccc7c(c6)C(=O)N(C6CCC(=O)NC6=O)C7=O)CC5)C4)cn3)CC2)cc1C(F)(F)F (stereo not drawn)', '90%'),
  ('N#Cc1ccc(N2CCC(C(=O)Nc3ccc(N4CCC(CCN5CCN(c6ccc7c(c6)C(=O)N(C6CCC(=O)NC6=O)C7=O)CC5)CC4)cn3)CC2)cc1Cl (stereo not drawn)', '88%'),
  ('N#Cc1ccc(N2CCC(C(=O)Nc3ccc(N4CCC(CCN5CCN(C6CCN(c7ccc8c(c7)C(=O)N(C7CCC(=O)NC7=O)C8=O)CC6)CC5)CC4)cn3)CC2)cc1C(F)(F)F (stereo not drawn)', '96%'),
  ('N#Cc1ccc(N2CCC(C(=O)Nc3ccc(N4CCC(CN5CCN(C[C@@H]6CCN(c7ccc8c(c7)C(=O)N(C7CCC(=O)NC7=O)C8=O)C6)CC5)CC4)cn3)CC2)cc1C(F)(F)F (stereo partly drawn)', '97%'),
  ('N#Cc1ccc(N2CCC(C(=O)Nc3ccc(N4CCC(CN5CCN(CC6CCN(c7ccc8c(c7)CN(C7CCC(=O)NC7=O)C8=O)CC6)CC5)CC4)cn3)CC2)cc1C(F)(F)F (stereo not drawn)', '97%'),
  ('N#Cc1ccc(N2CCC(C(=O)Nc3ccc(N4CCC(CN5CCN(CC6CCN(c7ccc8c(c7)C(=O)N(C7CCC(=O)NC7=O)C8=O)CC6)CC5)CC4)cn3)CC2)cc1C(F)(F)F (stereo not drawn)', '99%'),
  ('N#Cc1ncc(N2CCC(C(=O)Nc3ccc(N4CCC(CN5CC6(CCN(c7ccc8c(c7)CN(C7CCC(=O)NC7=O)C8=O)CC6)C5)CC4)cn3)CC2)cc1C(F)(F)F (stereo not drawn)', '86%'),
  ('N#Cc1ccc(N2CCC(C(=O)Nc3ccc(N4CCC(CN5CCN(C[C@H]6CCCN(c7ccc8c(c7)C(=O)N(C7CCC(=O)NC7=O)C8=O)C6)CC5)CC4)cn3)CC2)cc1C(F)(F)F (stereo partly drawn)', '94%'),
  ('N#Cc1ccc(N2CCC(C(=O)Nc3ccc(N4CCC(OCCN5CCN(c6ccc7c(c6)C(=O)N(C6CCC(=O)NC6=O)C7=O)CC5)CC4)cn3)CC2)cc1Cl (stereo not drawn)', '76%'),
  ('N#Cc1ccc(N2CCC(C(=O)Nc3ccc(N4CCC(CN5CC6(CCN(c7ccc8c(=O)n(C9CCC(=O)NC9=O)nnc8c7)CC6)C5)CC4)cn3)CC2)cc1C(F)(F)F (stereo not drawn)', '91%'),
  ('N#Cc1ccc(N2CCC(C(=O)Nc3ccc(N4CC(CN5CCC(CN6CCN(c7cc8c(cc7F)C(=O)N(C7CCC(=O)NC7=O)C8=O)CC6)CC5)C4)cn3)CC2)cc1C(F)(F)F (stereo not drawn)', '84%'),
  ('N#Cc1ncc(N2CCC(C(=O)Nc3ccc(N4CCC(CCN5CCN(c6ccc7c(c6)C(=O)N(C6CCC(=O)NC6=O)C7=O)CC5)CC4)cn3)CC2)cc1C(F)(F)F (stereo not drawn)', '73%'),
  ('N#Cc1ccc(N2CCC(C(=O)Nc3ccc(CN4CCC(CN5CCC(Oc6ccc7c(c6)C(=O)N(C6CCC(=O)NC6=O)C7=O)CC5)CC4)cn3)CC2)cc1C(F)(F)F (stereo not drawn)', '60%'),
  ('N#Cc1ccc(N2CCC(F)(C(=O)Nc3ccc(N4CCC(CN5CCN(C6CCN(c7ccc8c(c7)C(=O)N(C7CCC(=O)NC7=O)C8=O)CC6)CC5)CC4)cn3)CC2)cc1C(F)(F)F (stereo not drawn)', '94%');
